Values were extracted from PubChem BioAssay AID1159580.

Test: chemical genetic growth profiling, strain panel (AID 1159580);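 also: tested at 20 µM; growth read once vehicle control cultures reached saturation at 30 °C; 1 = growth at the plate median or of vehicle wells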
Conditions: S. cerevisiae deletion strains, growth OD, locus YDR069C, strain doa4, stronger effect = lower value
Out of some 5,500 compounds screened, about 2,000 (36%) were called active. About 18% were inconclusive and are not listed. Some of the results follow.
Labelling field: enter yes if recorded normalized growth is less than 1. Enter no if it equals or exceeds that cut-off.

MOLECULE | CATEGORY
CC(=O)O[C@@](C)(CCC=C(C)C)C1CC=C(C)CC1 (some centres not stated) | yes
CCC1(c2ccc(N)cc2)CCC(=O)NC1=O (configuration not stated) | yes
CN1CCc2cc3c(cc2C1O)OCO3 (configuration not stated) | yes
CCOC(=O)c1ncn2c1CN(C)C(=O)c1cc(F)ccc1-2 | no
COC(=O)C1[C@H]2C[C@H]3c4[nH]c5ccccc5c4CCN3C[C@@H]2CC[C@@H]1O (some centres not stated) | yes

###

Readings of normalized growth for the listed molecules
Assay: chemical genetic growth profiling, strain panel (AID 1159580);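 also: tested at 20 µM; growth read once vehicle control cultures reached saturation at 30 °C; 1 = growth at the plate median or of vehicle wells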
Details: S. cerevisiae deletion strains, growth OD, locus YNL183C, strain NPR1, stronger effect = lower value
The campaign covered roughly 5,500 compounds. About 2,000 (36%) were called active. Roughly 18% stayed inconclusive and do not appear here. Some of the results follow.

MOLECULE | normalized growth
OCc1ccccc1O[C@@H]1O[C@H](CO)[C@@H](O)[C@H](O)[C@H]1O | 0.944 (inactive)
CC(=O)O[C@]1(C(C)=O)CCC2C3C=C(Cl)C4=CC(=O)CC[C@]4(C)C3CC[C@@]21C (stereo partly drawn) | 0.958 (inactive)
NC(N)=Nc1nc(CSCCC(N)=NS(N)(=O)=O)cs1 | 0.931 (inactive)

###

Experiment: chemical genetic growth profiling, strain panel (AID 1159580);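 also: tested at 20 µM; growth read once vehicle control cultures reached saturation at 30 °C; 1 = growth at the plate median or of vehicle wells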
Conditions: S. cerevisiae deletion strains, growth OD, locus YGL253W, strain hxk2, stronger effect = lower value
The campaign covered roughly 5,500 compounds. About 2,000 (36%) were called active. About 18% were inconclusive and are not listed. This is one part of the list.
Readings of normalized growth for the listed molecules

MOLECULE | normalized growth
c1ccc(CC2=NCCN2)cc1 | 1.01
C=CC1=C(C(=O)O)N2C(=O)[C@@H](NC(=O)/C(=N/O)c3csc(N)n3)[C@H]2SC1 | 1.01
CNC1(C)C2CCC(C2)C1(C)C (stereo not given) | 1
COc1cc(O)c(C(=O)c2ccccc2)cc1O | 1.04
CC1(C)C2CC[C@]3(C)C(C(=O)C=C4[C@H]5C[C@@](C)(C(=O)O)CC[C@]5(C)CC[C@]43C)[C@@]2(C)CC[C@@H]1O (stereo not given in full) | 0.754
CN=C(NC#N)NCCSCc1nc[nH]c1C | 0.997
CN1CCCC(n2nc(Cc3ccc(Cl)cc3)c3ccccc3c2=O)CC1 (stereo not given) | 1.02
Cn1cc[nH]c1=S | 0.97
Cc1cc(OC(=O)N2CCCCC2)c(C(C)C)cc1[N+](C)(C)C | 1.01
OCCN(CCO)c1nc(N2CCCCC2)c2nc(N(CCO)CCO)nc(N3CCCCC3)c2n1 | 0.956
COc1ccc(C2CC(=O)c3ccc(OC)cc3O2)cc1 (stereo not given) | 0.891
O=C(O)COc1cc(Cl)c(Cl)cc1Cl | 0.995
O=C1CC(c2ccc(O)c(O)c2)Oc2cc(O)cc(O)c21 (stereo not given) | 1.01
O=C1C[C@@H](c2ccc(O)cc2)Oc2cc(O)cc(O)c21 | 0.983
CC(C)N(C(=O)CCl)c1ccccc1 | 0.941
